Procedure Details: Basal cytotoxicity test (neutral red uptake) with estimation of LD50 from IC50
Format: cell-based, mouse
Experimental Context: mouse, NIH 3T3 fibroblast cells; category by estimated LD50 (mg/kg); read-out: Toxicity category from estimated LD50
Measured Attribute: LD50 at 24 h

Find the recorded LD50 at 24 h belonging to `C#CCOC(=O)C1=C(C)NC(C)=C(C(=O)OCC#C)C1c1ccc[n+](CCCCCCCCCCCC)c1` and report it.
50 to 300 mg/kg

Then this compound: `C#CCN1C(C)=C(C(=O)OCC)C(c2ccc[n+](CCCCCCCCCCCC)c2)C(C(=O)OCC)=C1C`
50 to 300 mg/kg
